Hello, the source for this data is paper PMC4336329, in case you need it.

- measurement.target: human ether-à-go-go-related gene (hERG) potassium channel (human);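 also: peak tail current of the secondary pulse compared with the same well before compound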
- Sequence (Q12809 whole entry, looked up): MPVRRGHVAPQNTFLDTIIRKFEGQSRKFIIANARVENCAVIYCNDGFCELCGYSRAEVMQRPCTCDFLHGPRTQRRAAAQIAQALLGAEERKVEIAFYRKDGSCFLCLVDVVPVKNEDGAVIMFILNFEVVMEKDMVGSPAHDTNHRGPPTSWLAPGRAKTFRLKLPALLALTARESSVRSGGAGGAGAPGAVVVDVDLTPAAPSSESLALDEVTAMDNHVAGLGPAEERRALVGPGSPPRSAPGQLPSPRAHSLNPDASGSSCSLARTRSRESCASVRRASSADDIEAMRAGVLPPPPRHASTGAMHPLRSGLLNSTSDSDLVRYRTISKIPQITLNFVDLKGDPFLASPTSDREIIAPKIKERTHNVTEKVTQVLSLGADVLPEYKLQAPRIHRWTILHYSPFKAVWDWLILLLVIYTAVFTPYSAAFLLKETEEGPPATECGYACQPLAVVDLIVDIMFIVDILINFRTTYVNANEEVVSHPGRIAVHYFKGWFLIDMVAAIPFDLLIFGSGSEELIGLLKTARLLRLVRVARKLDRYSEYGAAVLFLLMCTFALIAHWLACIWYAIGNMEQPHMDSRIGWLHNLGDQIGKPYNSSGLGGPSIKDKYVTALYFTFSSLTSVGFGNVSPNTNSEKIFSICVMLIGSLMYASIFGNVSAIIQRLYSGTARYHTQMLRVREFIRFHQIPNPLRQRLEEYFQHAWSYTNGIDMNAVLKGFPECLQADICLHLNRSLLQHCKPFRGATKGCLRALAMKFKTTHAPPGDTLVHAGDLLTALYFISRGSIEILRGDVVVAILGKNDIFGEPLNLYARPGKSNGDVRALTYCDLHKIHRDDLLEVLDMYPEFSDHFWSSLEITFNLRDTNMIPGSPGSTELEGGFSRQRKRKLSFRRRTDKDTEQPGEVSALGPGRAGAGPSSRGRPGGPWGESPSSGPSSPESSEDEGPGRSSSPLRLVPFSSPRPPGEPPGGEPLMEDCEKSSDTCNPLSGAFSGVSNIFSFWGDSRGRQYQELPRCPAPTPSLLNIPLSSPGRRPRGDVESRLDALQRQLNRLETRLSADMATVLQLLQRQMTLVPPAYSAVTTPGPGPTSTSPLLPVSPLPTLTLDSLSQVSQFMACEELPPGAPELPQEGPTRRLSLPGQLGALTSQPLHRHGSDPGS
- measurement.description: primary screen, population patch clamp on CHO cells stably expressing hERG; higher = less effect of the substance
In all, about 310,000 compounds went through this assay and about 14,000 (4.5%) showed an effect of 50% or more. Effects have a minus sign here. The entries come from a sample that favours strong results as a whole.
measurement.type: hERG current change (%, negative = inhibition) at 10uM (%)

[[record]]
molecule = "C/C=C(\\C)C(=O)NCCN1C2=NC[C@H](C(C)C)N2C[C@@H]1Cc1ccc(OC)cc1"
result_number = -86.6

[[record]]
molecule = "O=C1CC(N(Cc2cccs2)C(=O)Nc2ccccc2)C(=O)N1c1ccc(Cl)cc1 (stereo not drawn)"
result_number = -22.6

[[record]]
molecule = "C/C=C(\\C)C(=O)NCCN1C2=NC[C@H](Cc3ccccc3)N2C[C@H]1Cc1ccc(O)cc1"
result_number = 1.99

[[record]]
molecule = "COc1ccc(CCn2c(=N)c(C(=O)NCCN3CCOCC3)cc3c(=O)n4cccc(C)c4nc32)cc1OC"
result_number = -97.8

[[record]]
molecule = "C/C=C(\\C)C(=O)NCCN1C2=NC[C@H](C(C)C)N2C[C@H]1Cc1ccc(O)cc1"
result_number = 23.1

[[record]]
molecule = "COc1ccc(CCN2C(=O)CC(NNc3ccc([N+](=O)[O-])cc3)C2=O)cc1OC (stereo not drawn)"
result_number = -52.8

[[record]]
molecule = "CCCN(CC(=O)Nc1ccccc1C)C(=O)c1ccc(C(=O)c2ccccc2)cc1"
result_number = -25.9

[[record]]
molecule = "CCCc1nn(C)c(C(=O)Nc2ccc3ccccc3c2)c1Cl"
result_number = 8.62

[[record]]
molecule = "Cc1ccc(NC(=O)c2nc(S(=O)(=O)Cc3ccccc3C)ncc2Cl)cc1C"
result_number = 2.81

[[record]]
molecule = "O=C(Nc1cccc(C(F)(F)F)c1)Oc1ccc(Cl)c2cccnc12"
result_number = 9.96

[[record]]
molecule = "CCN(CC)S(=O)(=O)c1ccc(C(=O)NCCCN=C2NS(=O)(=O)c3ccccc32)cc1"
result_number = -5.24

[[record]]
molecule = "Cc1cc(C)cc(NC(=S)N2CCC(N(C)CC3CCCO3)CC2)c1 (stereo not drawn)"
result_number = -52

[[record]]
molecule = "Cc1ccc(C2CC(=O)C=C(Nc3ccc(Cl)cc3)C2)cc1 (stereo not drawn)"
result_number = 7.93

[[record]]
molecule = "COc1ccc2oc(=O)c(C(=O)N3CCN(C(=O)c4ccco4)CC3)cc2c1"
result_number = -12.9

[[record]]
molecule = "COc1ccc(NC(=O)CSc2nc3c([nH]c4ccccc43)c(=O)n2C)c(OC)c1"
result_number = 19

[[record]]
molecule = "COc1ccc(CCn2c(=O)[nH]c3cc(C(=O)NCCN4CCOCC4)ccc3c2=O)cc1OC"
result_number = 0.353

[[record]]
molecule = "O=C(O)/C(=C\\c1cn(-c2ccccc2)nc1-c1cccnc1)NC(=O)c1ccccc1"
result_number = 7.21

[[record]]
molecule = "NS(=O)(=O)c1c(Sc2ccccc2C(=O)O)ccc2ccccc12"
result_number = 28.4

[[record]]
molecule = "Cc1cccc(NC(=S)N2CCC(N(C)CC3CCCO3)CC2)c1 (stereo not drawn)"
result_number = -32.3

[[record]]
molecule = "CCOc1ccc(CCNC(=O)CSCc2ccc(C)cc2)cc1OCC"
result_number = -2.33

[[record]]
molecule = "Cc1ccc(NC(=O)N/C=C/c2ccco2)cc1C"
result_number = -1.57

[[record]]
molecule = "Cn1nccc1C(=O)Nc1ccc(OC(=O)c2ccnn2C)cc1"
result_number = -6.68

[[record]]
molecule = "CCOC(=O)c1ccc2nc(C)cc(Nc3cccc(C(=O)O)c3)c2c1"
result_number = 5.41

[[record]]
molecule = "COc1ccc(-n2cnc3c(sc4nc(N5CCOCC5)c5c(c43)CCCC5)c2=O)cc1"
result_number = 21.3

[[record]]
molecule = "Cn1nc(C(=O)Nc2ccccc2)c2c1-c1ccccc1S(=O)(=O)C2"
result_number = -0.138

[[record]]
molecule = "COc1ccc(NCc2nnc(SCC(=O)Nc3ccc(OC)cc3OC)o2)cc1"
result_number = -9.35

[[record]]
molecule = "C=C[C@@]12CN(C)[C@H]3[C@H]1[C@@]1(C(=O)Nc4ccccc41)C1CC2[C@@H]3CO1"
result_number = 13

[[record]]
molecule = "COC(=O)c1cscc1NC(C)=O"
result_number = 20.7

[[record]]
molecule = "CC(=O)Nc1ccc(Nc2cc(C)nc3ccccc23)cc1"
result_number = -7.21

[[record]]
molecule = "Cc1ccc(C)c(NC(=S)N2CCN(Cc3ccccc3)CC2)c1"
result_number = 11.2

[[record]]
molecule = "COc1ccc(CCNC(=O)c2c(N)n(CCN3CCOCC3)c3nc4ccccc4nc23)cc1OC"
result_number = -8.6

[[record]]
molecule = "COc1cccc(OCC(=O)N2CCC3(CC2)CC(=O)c2ccccc2O3)c1"
result_number = -55.8

[[record]]
molecule = "Cc1ccc(-c2nnc(SCC(N)=O)n2C)cc1"
result_number = -0.685

